target: T1, ZIKV (prM80E) with a C-terminal myc-myc-hexahistidine tag (Zika virus, UniProt A0A024B7W1 104-694); assay: SPR, mAb captured, 37C, pH 5.0 chase
T1 construct: also called ZIKV (prM80E)-mmH; ZIKV-mmH
Kindly apply the following: Yes if t½ is less than 5 min, No in every other case.

binder	label
H4H25640P (antibody, V domains shown) VH: QVQLVESGGGVVQPGRSLRLSCAASGFTFSYYGMHWVRQAPGKGLEWVAVILYDGSNKFYSDSVKGRFTISRDNSRNTLYLQMNSLRLEDTAVYYCAKDYGGRFDYWGQGTLVTVSS VL: EIVLTQSPGTLSLSSGERATLSCRASQSVSNKYLAWYQQKPGQVPRLLIYGASNRATGIPDRFSGSGSGTDFTLTINRLEPEDFAVFYCQQYGSTPSTFGQGTKVEIK	Yes
H4H25587P (antibody, V domains shown) VH: EVQLVESGGGLVQPGRSLTLSCAASGFTFDDYVMHWVRQAPGKGLEWVSGISWNSDTIDYADSVKGRFTISRDNAKNSLYLQMNSLRAEDTALYYCAKDRRSWYGGYFDYWGQGTLVTVSS VL: DIQMTQSPSSLSASVGDRVTITCRASQGISSYLAWYQQKPGKVPKLLIYAASTLQSGVPSRFSGSGSGTDFSLTISSLQPEDVATYYCQKYNSAPLTFGGGTKVEIK	Yes
H4H25704N (antibody, V domains shown) VH: QVQLVESGGGVVQSGRSLRLSCAASGFTFIYYGMHWVRQAPGKGLEWVAVISYDGSDRYYADSVKGRFTISRDDSKNTLYLQMNSLRPEDTAVYYCAKDRGGRFDYWGQGTLVTVSS VL: EIVLTQSPGTLSLSPGERATLSCRASQSVNNNYLAWYQQKPGQAPRLLIYGASSRATGIPDRFGGGGSGTDFTLTISRLEPEDFAVYYCQRYGNSPLTFGGGTKVEIK	No
H4H25592P (antibody, V domains shown) VH: QVQLVESGGGVVQPGRSLRLSCAASGFTFSYSGMHWVRQAPGKGLEWVAVISYDGSNKYYADSVKGRFTISRDNSNNILYLQMNSLRAEDTAVYYCAKDWGGRFDPWGQGTLVTVSS VL: DIQMTQSPSSLSASVGDRVTITCRASQGISSYLAWYQQIPGKVPKLLIYAASTLHSGVPSRFSGSGSGTDFTLTISSLQPADVATYYCQKYNSAPLTFGGGTKVEIK	Yes
